Tested on: SK-MEL-5 melanoma
test.name: NCI-60 one-dose screen, 48 h
assay.context: 10 µM unless noted
About 83,000 compounds went through this panel and 20% of them were active in at least one assay; those are over-represented in the sample as a whole. Active and inactive are the calls of the source. The calls were made as follows: active = growth percent below 10; inactive = the rest.
Write down the outcome that applies. Available outcomes: 1 (active), -1 (inactive)

Answered examples (5):
[[record]]
compound = "Cc1cc2nc3c([nH]c2cc1C)c1ccc(=O)cc1n3CCN(C)C"
answer_label = -1

[[record]]
compound = "CC12CC[C@@H]3[C@]4(C)COC(c5cn[nH]c5-c5ccc(Br)cc5)O[C@@H]4CC[C@@]3(C)[C@@H]1CC(C1=CCOC1=O)O2 (some centres undefined)"
answer_label = -1

[[record]]
compound = "CCN(CC)c1ccnc(CNCCSC(c2ccccc2)(c2ccccc2)c2ccc(OC)cc2)c1"
answer_label = 1

[[record]]
compound = "C#CCOc1cc(N(CC)CC)ccc1C(C(=O)NC(C)(C)C)N(C(=O)C1CCc2cc(F)ccc2O1)c1ccc(Br)cc1 (centres undefined)"
answer_label = -1

[[record]]
compound = "CCCCSc1nc(NCCc2c[nH]c3ccccc23)c(C#N)c(-c2ccccc2)n1"
answer_label = -1


Hi, sorry to bother you, what did the test record for N#Cc1c(-c2cccc3ccccc23)cc(-c2cccc(OCC(=O)O)c2)[nH]c1=O ?
-1

State the result this test recorded for CC(=O)c1c(N)c(C#N)cn1-c1ccc(Cl)cc1Cl .
-1

# fetch the recorded call for CN(C)CCn1c2ccccc2c2nc3cc(C(F)(F)F)ccc3nc21 here
-1

Hi, do you know how CC1(C)CC[C@]2(C(=O)Nc3ccc(Br)cc3)CC[C@]3(C)C(=CCC4[C@@]5(C)C[C@@H](O)[C@H](O)[C@@](C)(CO)C5CC[C@]43C)C2C1 (some centres undefined) came out in this test?
1

Status in this test for Cc1cc2c(cc1Cl)C(=O)/C(=C/c1ccccc1)O2 ?
1

Each compound tested received a call. Report the one for COc1c(F)ccc(C(=O)Nc2ccc3nc(NC(=O)C4CCCN(S(=O)(=O)c5cccc(Cl)c5)C4)sc3c2)c1F (centres undefined) .
-1

Recorded call for C#CCOc1cc(N(CC)CC)ccc1C(C(=O)NC(C)(C)C)N(C(=O)C1CCc2cc(F)ccc2O1)c1ccccc1Br (centres undefined) ?
-1

How did this test come out for Cc1ccc(-c2nc(C#N)c(S(=O)(=O)N3CCN(S(=O)(=O)c4ccccc4)CC3)o2)cc1 ?
1

Write down the call the test reported for this compound. Item: O=C(c1ccc(Cl)cc1)c1ccc(OCCCN2CCN(c3ccncc3)CC2)cc1
1

Which outcome was assigned to Cn1cc(-c2cc(N)n3nc(-c4c[nH]c5ccccc45)cc3n2)c2cc(Br)cnc21 in this test?
1

###

Test system: OVCAR-8 ovarian
test.name: NCI-60 one-dose screen, 48 h
assay.context: 10 µM unless noted
About 83,000 compounds went through this panel and 20% of them were active in at least one assay; those are over-represented in the sample as a whole. Calls of active or inactive are those of the source. The calls were made as follows: active = growth percent below 10; inactive = the rest.
Returns: one label drawn from 1.0 = active, 0.0 = inactive

Test call for this molecule, please: S=C(Nc1ccccc1)Nc1ccc(OCc2nc3ccccc3[nH]2)cc1
0.0

Would you mind telling me which call this test gave O=C(NNc1nc2cc(F)ccc2n2c(CN3CCCCC3)ccc12)c1cnccn1 ?
1.0

Please let me know the test result on file for O=C(O)c1ccc(-c2ccc(/C=N/NC(=O)c3[nH]c4ccc(Br)cc4c3-c3ccccc3)s2)cc1 .
0.0

Tell me the recorded outcome of this test for Cc1cc(C)cc(C(=O)Nc2cccc(-c3cn(-c4ccc(S(N)(=O)=O)cc4)nn3)c2)c1 .
0.0

What classification did COc1ccc(/C=C2\C(=O)Nc3ccc(Cl)cc32)cc1OCc1ccccn1 end up with in this test?
0.0

Outcome? CC(=O)Nc1ccc(-n2cnc3cc(-c4ccc(O)cc4)ccc32)cc1C(F)(F)F
0.0

###

Test system: U251 CNS
test.name: NCI-60 one-dose screen, 48 h
assay.context: 10 µM unless noted
The panel holds about 83,000 compounds, 20% with a hit somewhere; the sample as a whole holds those more often. Active and inactive are the calls of the source. The calls were made as follows: active = growth percent below 10; inactive = the rest.
Permitted responses: true (1) = active, false (0) = inactive

Some entries whose results are on file:
[[record]]
compound = "C=CC[N+](C)(C)CCn1c2ccccc2c2nc3cc(C)c(C)cc3nc21"
answer_label = "false (0)"

[[record]]
compound = "O=C(Cn1c2c(sc1=O)[C@H]1[C@@H](O)[C@@H](O)[C@H](O)[C@@H]1CS2)N1CCOCC1"
answer_label = "false (0)"

[[record]]
compound = "CC1(c2cc3cc(Br)ccc3oc2=O)NC(=O)c2c(/C=C/C(=O)OC3CC4CCC3(C)C4(C)C)cccc2N1 (centres undefined)"
answer_label = "false (0)"

[[record]]
compound = "O=c1onc(-c2cc3ccccc3nc2Cl)n1-c1cccc2ccccc12"
answer_label = "false (0)"

[[record]]
compound = "CCN(CC)CCOc1ccc(Nc2ncc3cc(-c4ccc(O)c(C#N)c4)c(=O)n(C)c3n2)cc1"
answer_label = "true (1)"


Kindly provide the recorded test outcome for the following compound: COc1ccc2c(c1)c(-c1cc3nc(-c4cn(C)c5ncccc45)cc(N)n3n1)cn2C
true (1)

// outcome(item) with item = CN(C)CCn1c2ccccc2c2nc3cc(C(F)(F)F)ccc3nc21
false (0)

Hi, sorry to bother you, what did the test record for C=C1CCC2C3(C)COC(c4ccccc4)OC3CCC2(C)C1CC(NCc1ccccc1)C1=CCOC1=O (centres undefined) ?
false (0)

I would be grateful if you could indicate the recorded call for CCCCSc1nc(NCCc2c[nH]c3ccccc23)c(C#N)c(-c2ccc(OC)cc2)n1 .
false (0)

Can you look up the reported call for CCOC(=O)c1ccc(Nc2nc(NN)nc(-c3ccc(F)cc3)c2C#N)cc1 for me?
false (0)

Outcome? Clc1cccc(N/N=C/c2c[nH]c3ccc(Br)cc23)n1
false (0)

###

Test system: SK-MEL-2 melanoma
test.name: NCI-60 one-dose screen, 48 h (100 = growth as untreated, 0 = no growth, -100 = all killed)
assay.context: 10 µM unless noted
Compounds without any hit were thinned out: in the full panel of roughly 83,000, 20% have a hit.
observable: growth (%)
Give the value, in units of %, as a plain number.

Which growth is listed for COc1ccc(C2=NN(c3ccccc3)C(c3ccc(OC)c(OCc4ccccc4)c3)C2)cc1OC (stereo not given) ?
94.1

Value lookup for growth; key = COc1ccc2[nH]c(O)c(N=NC(=O)COc3ccc(NC(=O)Nc4ccccc4)cc3)c2c1
43.6

Returns the measured growth for the input compound. Input: COc1ccccc1/C=C/C(=O)c1ccc(OC)c(S(N)(=O)=O)c1
78.4

Any idea what its growth is? The compound is COc1ccc(-c2nc(SC(C)C)nc(NCCc3c[nH]c4ccccc34)c2C#N)cc1
74.6

Consider the compound shown here: COc1ccc(NC(=O)Cn2c3c(sc2=O)[C@H]2[C@@H](O)[C@@H](O)[C@H](O)[C@@H]2CS3)cc1 What is its recorded growth?
101

###

Test system: NCI-H522 lung
test.name: NCI-60 one-dose screen, 48 h
assay.context: 10 µM unless noted
This is part of a sample that, as a whole, favours compounds with a hit. Of some 83,000 tested, about 20% had one in any assay. The source made the active and inactive calls. Rule for the calls: active = growth percent below 10; inactive = the rest.
Parameter call: string, one of active, inactive

Record excerpt, results attached:
[[record]]
compound = "O=C(C1=CNC(=S)NC1c1ccc(O)cc1)c1cc2ccccc2oc1=O (stereo not given)"
answer_label = "inactive"

[[record]]
compound = "NS(=O)(=O)c1ccc(-n2cc(-c3cccc(NC(=O)c4cc(C(F)(F)F)cc(C(F)(F)F)c4)c3)nn2)cc1"
answer_label = "inactive"

[[record]]
compound = "CC(C)CSc1nc(NCCc2c[nH]c3ccccc23)c(C#N)c(-c2ccc(F)cc2)n1"
answer_label = "inactive"

[[record]]
compound = "CCCS(=O)(=O)N1CCCC(C(=O)Nc2nc3ccc(NC(=O)c4ccc(F)c(OC)c4F)cc3s2)C1 (stereo not given)"
answer_label = "inactive"


I would be grateful if you could indicate the recorded call for CCOC(=O)C(N=Nc1ccc(S(=O)(=O)N=C(N)N)cc1)C(C)=O (stereo not given) .
inactive

For CN(C)c1ccnc(CNCCSC2(c3ccc(C(F)(F)F)cc3)c3ccccc3CCc3ccccc32)c1 , what call appears in the results of this test?
active

// outcome(item) with item = CN1CCc2c(sc3ncnc(N/N=C/c4ccc(Cl)cc4Cl)c23)C1
active

For this compound, state the assay outcome: CCCCc1c(Nn2cnnn2)no[n+]1[O-]
active

Which outcome was entered for the compound CC1=C(C#N)C2=NNCC(c3ccccc3)=NN2C(c2ccccc2)=C1 in this test?
inactive

Check the results log: what was the call for O=C(N=Nc1c(O)[nH]c2ccc([N+](=O)[O-])cc12)c1ccc2nc(-c3ccccc3)[nH]c2c1 ?
inactive
